Molecular target: T1, cynomolgus galectin-10-His, WGS isoform (cynomolgus)
T1 construct: also called cynoGal10-WGS; not shown: His tag
T1 chain: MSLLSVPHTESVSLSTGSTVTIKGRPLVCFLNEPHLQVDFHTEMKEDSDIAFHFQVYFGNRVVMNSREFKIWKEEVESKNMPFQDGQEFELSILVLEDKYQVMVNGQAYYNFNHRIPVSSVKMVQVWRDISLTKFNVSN
Experiment: SPR Biacore T3000, mouse IgG1 captured
Label key: condition met means kon under 500000 M⁻¹ s⁻¹; condition not met means kon of 500000 M⁻¹ s⁻¹ or more.

Some solved cases for reference:
7B07 mouse IgG1 (antibody, V domains shown, VH and VL cloned in frame with mouse IgG1 constant domains; also called 7B07 mIgG1) VH: QVQLVESGGGLVQPGGSLRLSCAASGFTFRSYDMSWVRQAPGKGPEWVSAIKNGGGITYYADSVKGRFTISRDNAKNTLYLQMNSLKPEDTAVYYCATTHGIGTLGFGSWGQGTQVTVSS VL: SYELTQSASVSVALTQTAKITCDGNNIGSKSAQWYQQKPGQAPALVIYADEYRPEGIPERFSGSNSGNTATLIISGAQAEDEADYYCQVWDGSAAVFGRGTHLTVL :: condition not met
10D02 mouse IgG1 (antibody, V domains shown, VH and VL cloned in frame with mouse IgG1 constant domains; also called 10D02 mIgG1) VH: EVQLVESGGGLVQPGGSLRVSCAASGFTFSSYYMSWVRQAPGKGLEWVSGIVTGGGRTHYTDSVKGRFTITRDNAKNTLYLQMNSLRPEDTALYYCARVNGVVTNYDYWGQGTQVTVSS VL: QAVLTQPPSVSGSPGKTVTISCAGTSSDVGYGNYVSWYQQLPGMAPKLLIYDVNKRASGITDRFSGSKSGNTASLTISGLQSEDEADYFCASYRSPNNVVFGQGTHLTVL :: condition met
8H11 mouse IgG1 (antibody, V domains shown, VH and VL cloned in frame with mouse IgG1 constant domains; also called 8H11 mIgG1) VH: ELQLVESGGGLVQPGGSLRLSCAASGFTFSTNYMNWVRQAPGKGLEWVSGITSGGGRTYYADSVKGRFTISRDNAKNTLYLQMNSLKPEDTALYYCARTDHAWLDAWGQGTLVTVSS VL: QAGLTQPPSVSGTLGKTVTISCAGTSSDVGYGNYVSWYQQLPGTAPKLLIYAVSTRASGIPDRFSGSKSGNTASLTISGLLSEDEADYYCASYRSSNNYVFGGGTKLTVL :: condition met

Shift focus to the following entry.
q: Just wondering, is kon of 11F02 mouse IgG1 (antibody, V domains shown, VH and VL cloned in frame with mouse IgG1 constant domains; also called 11F02 mIgG1) VH: ELQVVESGGGLVQPGGSLRLSCAASGFTFSTNYMNWVRQAPGKGLEWVSGITSHGARTYYADSVKGRFTISRDNSKNTLYLQMNSLKPEDTALYYCARTDHASLDAWGQGTLVTVSS VL: QTVVTQEPSLSVSPGGTVTLTCGLSSGSVTSSNYPGWYQQKPGQAPRTLIYNTNSRYSGVPNRFSGSISGNKAALTITGAQPEDEADYYCALYMGSSSYNTVFGGGTHLTVL below 500000 M⁻¹ s⁻¹?
a: condition met

Each recorded value in this set is attributed to patent US20190367619A1.
